experimental.target: T1, full-length CD25 (human, UniProt P01589 22-186, limits assumed)
T1 construct: The assays used soluble 'full-length CD25'; also called Hu CD25; IL-2 receptor alpha chain
T1 chain: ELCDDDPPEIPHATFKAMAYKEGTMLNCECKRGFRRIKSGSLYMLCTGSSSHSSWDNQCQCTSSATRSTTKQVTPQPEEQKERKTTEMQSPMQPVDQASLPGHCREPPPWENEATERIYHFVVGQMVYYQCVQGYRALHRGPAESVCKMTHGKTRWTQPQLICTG
method.notes: Octet biolayer interferometry, human IgG1 against CD25
endpoint.name: Kd
Field note: include the unit after the figure.

Reported Kd, binder YU389-A03 (antibody, Tested as full-length human IgG1) scFv: PSQTLSLTCTVSGGSISSGGYYWSWIRQHPGKGLEWIGYIYYSGSTYYNPSLKSRVTISVDTSKNQFSLKLSSVTAADTAVYYCARGNLWSGYYFWGQGTLVTVSSQSVLTQPPSVSAAPGQKVTISCSGSSSNIGNNFVSWYQQVPGTAPKLLTYDSTKRPAGIPDRFSGSKSGTSATLEIAGLQTGDEADYYCGSWDTNLSGYVFGTGTKVTVL : ____
9.55 nM

Reported Kd, binder YU392-B11 (antibody, Tested as full-length human IgG1) scFv: PGATVKISCKVSGYTFTDYYMHWVQQAPGKGLEWMGLVDPEDGETIYAEKFQGRVTITADTSTDTAYMELSSLRSEDTAVYYCAVEGGRAPGTYYYDSSGLAYWGQGTLVTVSSQAGLTQPPSASGTPGQRVTISCSGSSSNIGSNYVYWYQQLPGTAPKLLIYSNNQRPSGVPDRFSGSKSGTSASLAISGLRSEDEADYYCATWDDSLSGVVFGGGTKLTVL : ____
65.6 nM

Reported Kd, binder YU401-G07 (antibody, Tested as full-length human IgG1) scFv: LGRSLRLSCAASGFTFSSYGMHWVRQAPGKGLEWVAVISYDGSNKYYADSVKGRFTISRDNSKNTLYLQMNSLRAEDTAVYYCAKGDVNYGMDVWGQGTTVTVSSSYVLTQPPSVSVAPGQTARISCGGSNIGSKTVNWYRKKAGQAPVLVVYDGRDRPSGIPERFSGSNSGNAATLIISRVEVGDEADYYCQVWDTSGDLHWAFGGGTKLTVL : ____
15.3 nM
